# assay.explanation: chemical genetic growth profiling, strain panel (AID 1159580);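 also: tested at 20 µM; growth read once vehicle control cultures reached saturation at 30 °C; 1 = growth at the plate median or of vehicle wells; lower values mean less growth of the strain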
# conditions.used: S. cerevisiae deletion strains, growth OD, locus YBL061C, strain skt5
The whole screen tested about 5,500 compounds, of which about 2,000 (36%) were called active. Another 18% or so got no clear call; they are omitted. Rule as the data show it: active = normalized growth mostly below about 0.91 (no sharp cut-off); inconclusive = no clear call, values can overlap the other calls; inactive = mostly above about 0.92. The list shows a part of the results.
Hi there, use one of these labels in your reply, thanks! 1 (yes) = active, 0 (no) = inactive

// below: answered compounds
[
  {
    "compound": "CCCCCC1C(=O)CCC1CC(=O)OC (stereo unspecified)",
    "label.class": "0 (no)"
  },
  {
    "compound": "CC1=C2[C@H]3OC(=O)[C@@H](C)[C@@H]3CC[C@@]2(C)C=CC1=O",
    "label.class": "0 (no)"
  },
  {
    "compound": "Cc1ncc([N+](=O)[O-])n1CC(C)O (stereo unspecified)",
    "label.class": "0 (no)"
  },
  {
    "compound": "O=[N+]([O-])c1cccc2cn[nH]c12",
    "label.class": "0 (no)"
  },
  {
    "compound": "COc1cc(OC)c(OC)cc1C=O",
    "label.class": "0 (no)"
  }
]

Could you please tell me the result logged for "O=C(O)CCCOc1ccc(Cl)cc1Cl" in this assay? 0 (no)

Given "O=c1cc(-c2ccccc2)oc2cc(O)c(O)c(O)c12" , state the outcome it received in this test. 1 (yes)

Give the logged outcome of this assay for the following compound: "CCOC(=O)[C@H](CCc1ccccc1)N[C@@H](C)C(=O)N1Cc2ccccc2C[C@H]1C(=O)O" 0 (no)

State the result this test recorded for "C/C=C/C(=O)N(CC)c1ccccc1C" . 0 (no)

State the result this test recorded for "C[C@H](N)[C@H](O)c1cccc(O)c1" . 0 (no)
